# EXPERIMENTAL_PROTOCOL: NCI Yeast Anticancer Drug Screen. Data for the rad50 strain (AID 155);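 further: 0% = growth of vehicle-only cultures of the same strain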
# CONDITION_SET: S. cerevisiae rad50 strain growth inhibition; at 50.0 µM (retest, dose inferred, filed as 5.0)
This is part of a sample that, as a whole, favours compounds with a hit. Of some 79,000 tested, about 15% had one in any assay. The source made the active and inactive calls. No stated cut-off is given here; in the data, active means growth inhibition above about 70%; inactive means the rest.
Classes used: active, inactive

- COMPOUND: "CCN(CC)Cc1cc(Nc2c3ccccc3nc3c2[nH]c2ccccc23)cc(CN(CC)CC)c1O"
  ANSWER_LABEL: "inactive"
- COMPOUND: "CCN(CC)CCNc1ccc([N+](=O)[O-])c2nc3ccccc3c(N)c12"
  ANSWER_LABEL: "active"
- COMPOUND: "CC1OC(O[C@H]2/C=C/C=C/C=C/C=C/C=C/C=C/C=C/[C@H](C)[C@@H](O)[C@@H](C)[C@H](C)OC(=O)C[C@H](O)C[C@H](O)CC[C@@H](O)[C@H](O)C[C@H](O)C[C@]3(O)C[C@H](O)[C@@H](C(=O)O)[C@H](C2)O3)C(O)C(N)C1O (some centres not stated)"
  ANSWER_LABEL: "active"
- COMPOUND: "CC(C)=NOC(=O)Nc1ccc(Cl)cc1"
  ANSWER_LABEL: "active"
- COMPOUND: "O=C1CSC(c2cccc(Cl)c2)N1c1ccc(-c2ccc(-n3c(-c4ccccc4)nc4ccccc4c3=O)cc2)cc1 (configuration not stated)"
  ANSWER_LABEL: "inactive"
- COMPOUND: "CN(C)c1ccc2c(SCC(=O)OCC(=O)[C@@]3(O)CC[C@H]4[C@@H]5CCC6=CC(=O)C=C[C@]6(C)[C@H]5C(=O)C[C@@]43C)c3ccc(N(C)C)cc3nc2c1"
  ANSWER_LABEL: "active"
- COMPOUND: "COc1ccc(C2C3=C(COC3=O)OC(C)(C)Oc3cc4c(cc32)OCO4)cc1OC (configuration not stated)"
  ANSWER_LABEL: "active"

###

# EXPERIMENTAL_PROTOCOL: NCI Yeast Anticancer Drug Screen. Data for the bub3 strain (AID 167)
# CONDITION_SET: S. cerevisiae bub3 mutant strain, at 50.0 µM (retest, dose inferred, filed as 5.0), hits give high values
This is part of a sample that, as a whole, favours compounds with a hit. Of some 79,000 tested, about 15% had one in any assay.

- COMPOUND: "O=[n+]1c2ccccc2n([O-])c2cc(Br)ccc21"
  growth inhibition [%]: 99
- COMPOUND: "O=C1OC(OC/C(Br)=C(\\Br)COC2OC(=O)C(Cl)=C2Cl)C(Cl)=C1Cl (stereo not given)"
  growth inhibition [%]: 93
- COMPOUND: "O=C(CC(C(=O)O)N1CCOCC1)c1ccccc1 (stereo not given)"
  growth inhibition [%]: 60
- COMPOUND: "CC[N+]1(C)CCC(O)(c2ccc(OC)cc2)C(C(=O)c2ccc(OC)cc2)C1 (stereo not given)"
  growth inhibition [%]: 91
- COMPOUND: "CCOC(=O)C1=C(C)NC(C)=C(C(=O)OCCNC(=O)c2ccc(N=[N+]=[N-])cc2)C1c1ccccc1C(F)(F)F (stereo not given)"
  growth inhibition [%]: 29

###

# EXPERIMENTAL_PROTOCOL: NCI Yeast Anticancer Drug Screen. Data for the sgs1 mgt1 strain (AID 161);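 further: 0% = growth of cultures given vehicle only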
# CONDITION_SET: S. cerevisiae sgs1 mgt1 strain, at 5.0 µM (retest, dose inferred, filed as 0.5), hits give high values
Compounds without any hit were thinned out: in the full panel of roughly 79,000, 15% have a hit.
QUANTITY_KIND: growth inhibition (%)

- MOLECULE: "Cc1ccccc1N=Cc1cc(Cl)ccc1O"
  QUANTITY_KIND: "growth inhibition"
  ASSAY_RESULT: -13
- MOLECULE: "O=Cc1ccc2c(c1)C(=O)c1ccccc1C2=O"
  QUANTITY_KIND: "growth inhibition"
  ASSAY_RESULT: 5
- MOLECULE: "NNC(=O)CCc1cc2ccccc2c2ccccc12"
  QUANTITY_KIND: "growth inhibition"
  ASSAY_RESULT: 28
- MOLECULE: "CCOC(=O)/C(=C\\c1ccc(C#N)cc1)C(C)=O"
  QUANTITY_KIND: "growth inhibition"
  ASSAY_RESULT: 25
- MOLECULE: "Cc1cc2cc3cc(C)c(N)cc3nc2cc1N"
  QUANTITY_KIND: "growth inhibition"
  ASSAY_RESULT: 16
- MOLECULE: "O=c1nc2n(Cc3ccccc3)c3ccccc3nc-2c(=O)[nH]1"
  QUANTITY_KIND: "growth inhibition"
  ASSAY_RESULT: 39
- MOLECULE: "COC(=O)/C=C(/C(=O)OC)C(Cl)(Cl)Cl"
  QUANTITY_KIND: "growth inhibition"
  ASSAY_RESULT: 23
- MOLECULE: "CCc1nc2ccc(NCCN(C)C)c3c(=O)c4ccccc4n1c23"
  QUANTITY_KIND: "growth inhibition"
  ASSAY_RESULT: 3
- MOLECULE: "COC(C(O)CO)C(O)C(O)C(=O)NNc1ccccc1 (stereo not drawn)"
  QUANTITY_KIND: "growth inhibition"
  ASSAY_RESULT: 15
- MOLECULE: "O=C1C=C(N2CCN(c3ccccn3)CC2)C(=O)c2c(O)ccc(O)c21"
  QUANTITY_KIND: "growth inhibition"
  ASSAY_RESULT: 8
- MOLECULE: "OC1(c2ccccc2)CCCc2ccc(Cl)cc21 (stereo not drawn)"
  QUANTITY_KIND: "growth inhibition"
  ASSAY_RESULT: -3
- MOLECULE: "CC(C)=NOC(=O)Nc1ccc(Cl)cc1"
  QUANTITY_KIND: "growth inhibition"
  ASSAY_RESULT: 0
- MOLECULE: "NC1=NNC2(C(N)=N1)c1ccccc1-c1ccccc12"
  QUANTITY_KIND: "growth inhibition"
  ASSAY_RESULT: -9

###

# EXPERIMENTAL_PROTOCOL: NCI Yeast Anticancer Drug Screen. Data for the sgs1 strain (AID 173);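 further: 0% = growth of vehicle-only control cultures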
# CONDITION_SET: S. cerevisiae sgs1 mutant, at 33.0 µM
About 79,000 compounds went through this panel and 15% of them were active in at least one assay; those are over-represented in the sample as a whole. The source made the active and inactive calls. Rule as the data show it: active = growth inhibition above about 70%; inactive = the rest.
Possible outcomes: true (1) (active), false (0) (inactive)

- COMPOUND: "c1ccc(-c2cnc3ccccc3c2)cc1"
  ANSWER_LABEL: "false (0)"
- COMPOUND: "O=[N+]([O-])c1cccc2nc3ccccc3c(NCCC[N+]3([O-])CCCCC3)c12"
  ANSWER_LABEL: "true (1)"
- COMPOUND: "CNCCCNc1c2ccccc2nc2cccc([N+](=O)[O-])c12"
  ANSWER_LABEL: "true (1)"
- COMPOUND: "CCC(C)(C)c1ccc(Oc2cccc(C(=O)O)c2)cc1"
  ANSWER_LABEL: "false (0)"
- COMPOUND: "Oc1ccc(O)c(Cc2ccccc2)c1"
  ANSWER_LABEL: "true (1)"
- COMPOUND: "Cc1ccc(Cl)cc1NC(=O)OCCN(C)C(=O)Nc1cc(Cl)ccc1C"
  ANSWER_LABEL: "false (0)"
- COMPOUND: "OC1(c2ccccc2)CCCc2ccc(Cl)cc21 (stereo not drawn)"
  ANSWER_LABEL: "false (0)"
- COMPOUND: "CCN(CC)CCOc1cc(C)c2cc(Cc3ccccc3)ccc2n1"
  ANSWER_LABEL: "false (0)"
- COMPOUND: "O=[N+]([O-])c1ccc(N/N=C/Cc2ccccc2)c([N+](=O)[O-])c1"
  ANSWER_LABEL: "false (0)"
- COMPOUND: "CSc1nc(C)c(CCOC(C)=O)c(N=P(c2ccccc2)(c2ccccc2)c2ccccc2)n1"
  ANSWER_LABEL: "false (0)"
- COMPOUND: "Cc1cc(N(CCOS(C)(=O)=O)CCOS(C)(=O)=O)ccc1C=Nc1ccc(-c2csc(-c3ccccc3)n2)c(Cl)c1"
  ANSWER_LABEL: "true (1)"
- COMPOUND: "Nc1ccc(F)cc1S"
  ANSWER_LABEL: "false (0)"
- COMPOUND: "Cc1csc(=S)n1OC(=O)NC1CCCCC1"
  ANSWER_LABEL: "true (1)"
- COMPOUND: "Cc1ccccc1N=Cc1cc(Cl)ccc1O"
  ANSWER_LABEL: "false (0)"
- COMPOUND: "C[CH2][Sn]([CH2]C)([O]C(=O)C(N)Cc1ccccc1)[O]C(=O)C(N)Cc1ccccc1 (stereo not drawn)"
  ANSWER_LABEL: "false (0)"
- COMPOUND: "COc1cc(C2SCC(=O)N2c2ccc(-c3ccc(-n4c(-c5ccccc5)nc5ccccc5c4=O)cc3)cc2)ccc1O (stereo not drawn)"
  ANSWER_LABEL: "false (0)"
- COMPOUND: "Cc1nc2c(Br)cc(Br)cc2c(=O)n1-c1ccccc1NC1OCC(O)C(O)C1O (stereo not drawn)"
  ANSWER_LABEL: "false (0)"
- COMPOUND: "COC(=O)CC1CCc2c(ccc3ccccc23)C1(C)C(=O)OC (stereo not drawn)"
  ANSWER_LABEL: "false (0)"
- COMPOUND: "CCCCCCCCCCCC1N=C(N)NC(CCCO)=C1C(=O)OC (stereo not drawn)"
  ANSWER_LABEL: "true (1)"
- COMPOUND: "O=c1ccc2ccccc2c2ccccc12"
  ANSWER_LABEL: "true (1)"
- COMPOUND: "CCOC(=O)C#Cc1ccc([N+](=O)[O-])cc1"
  ANSWER_LABEL: "false (0)"
- COMPOUND: "O=C(NCCCNCCN1C(=O)c2cccc3cc([N+](=O)[O-])cc(c23)C1=O)c1cc(-c2ccccc2)nc2ccccc12"
  ANSWER_LABEL: "false (0)"
- COMPOUND: "CCCCCCSc1ncnc2[nH]ncc12"
  ANSWER_LABEL: "false (0)"
- COMPOUND: "CC(=O)Nc1ccc2c(c1)-c1ccccc1C2=O"
  ANSWER_LABEL: "false (0)"
- COMPOUND: "NC(=O)C(=O)NNc1ccccc1"
  ANSWER_LABEL: "true (1)"
- COMPOUND: "O=C1Nc2ccccc2/C1=C/c1ccccc1"
  ANSWER_LABEL: "false (0)"
- COMPOUND: "NC1=NNC2(C(N)=N1)c1ccccc1-c1ccccc12"
  ANSWER_LABEL: "false (0)"
- COMPOUND: "CN1CCN(C(=O)/C=C/C(=O)c2ccccc2)CC1"
  ANSWER_LABEL: "true (1)"
- COMPOUND: "CCOC(=O)C1=C(C)NC(C)=C(C(=O)OCCNC(=O)c2ccc(N=[N+]=[N-])cc2)C1c1ccccc1C(F)(F)F (stereo not drawn)"
  ANSWER_LABEL: "false (0)"
- COMPOUND: "CN(C)CCCCN1c2ccccc2Sc2ccc(N=[N+]=[N-])cc21"
  ANSWER_LABEL: "false (0)"
- COMPOUND: "O=C1NC(SSC2=NNC3(C(=O)N2)c2ccccc2-c2ccccc23)=NNC12c1ccccc1-c1ccccc12"
  ANSWER_LABEL: "false (0)"
- COMPOUND: "COC1=C(N)C(=O)c2nc(-c3nc(C(=O)O)c(C)c(-c4ccc(OC)c(OC)c4O)c3N)ccc2C1=O"
  ANSWER_LABEL: "true (1)"
- COMPOUND: "COc1cc(/C=C2\\NC(=O)N(/C=C3\\C(=O)Oc4ccccc4C3=O)C2=O)ccc1O"
  ANSWER_LABEL: "true (1)"
- COMPOUND: "Cc1nc2ccccc2nc1NNc1ccccc1"
  ANSWER_LABEL: "false (0)"
- COMPOUND: "NC(N)=NS(=O)(=O)c1ccc(Nc2c3ccccc3nc3c(C(=O)NCCO)cccc23)cc1"
  ANSWER_LABEL: "false (0)"
- COMPOUND: "O=C1C=C(N2CCN(c3ccccn3)CC2)C(=O)c2c(O)ccc(O)c21"
  ANSWER_LABEL: "false (0)"
- COMPOUND: "COc1ccc2[nH]cc([C@@H]3C4CCC(C4)[C@H]3NCc3cccc(CN[C@H]4C5CCC(C5)[C@@H]4c4c[nH]c5ccc(OC)cc45)c3)c2c1"
  ANSWER_LABEL: "false (0)"
- COMPOUND: "Nc1nc(N)c2nc(CNc3ccc(C(=O)NC(CCC(=O)O)C(=O)O)cc3F)cnc2n1 (stereo not drawn)"
  ANSWER_LABEL: "false (0)"
- COMPOUND: "CC(=O)OCC1OC2OC(=O)NC2C(OC(C)=O)C1OC(C)=O (stereo not drawn)"
  ANSWER_LABEL: "false (0)"
- COMPOUND: "O=C(c1ccc([N+](=O)[O-])cc1)C1N=NCC1c1ccccc1 (stereo not drawn)"
  ANSWER_LABEL: "false (0)"
- COMPOUND: "Nc1ncc(-c2ccc(Br)cc2)s1"
  ANSWER_LABEL: "true (1)"
- COMPOUND: "COc1cccc2c1C(=O)c1c(O)c3c(c(O)c1C2=O)CC(O)(C(O)CO)CC3OC1CC(N2CCOCC2)C(O)C(C)O1 (stereo not drawn)"
  ANSWER_LABEL: "true (1)"
- COMPOUND: "Oc1ccc(-c2nc(-c3ccc(F)cc3)c(-c3ccc4ccccc4n3)[nH]2)cc1"
  ANSWER_LABEL: "true (1)"
